Species: Rattus norvegicus
Assay: Potency to dissociate hypoglycemic activity relative to compound 38
Type: functional
Recorded Relative potency split into classes LOW = under 0.1, MEDIUM = from 0.1 up to 0.7, HIGH = 0.7 and over

[[record]]
molecule = "CC1(C)CN=C2N(C1)c1ccccc1C2(O)c1ccccc1.Cl (configuration not stated)"
label = "HIGH"

[[record]]
molecule = "CC(=O)NC1(c2ccccc2)C2=NCC(C)(C)CN2c2ccccc21.Cl (configuration not stated)"
label = "LOW"

[[record]]
molecule = "Cl.OC1(c2ccc3ccccc3c2)C2=NCCCN2c2ccccc21 (configuration not stated)"
label = "LOW"

[[record]]
molecule = "CC1(C)CN=C2N(C1)c1ccccc1C2(N)c1ccccc1.Cl.Cl (configuration not stated)"
label = "HIGH"

[[record]]
molecule = "COC(C)CCC1(O)C2=NCC(C)(C)CN2c2ccccc21.Cl (configuration not stated)"
label = "HIGH"

[[record]]
molecule = "CCCCC1(O)C2=NCC3(CCCCC3)CN2c2ccccc21.Cl (configuration not stated)"
label = "HIGH"

[[record]]
molecule = "COCCCCC1(O)C2=NCC(C)(C)CN2c2ccccc21.Cl (configuration not stated)"
label = "LOW"

[[record]]
molecule = "CC(C)(C)CC1(O)C2=NCC(C)(C)CN2c2ccccc21.Cl (configuration not stated)"
label = "MEDIUM"

[[record]]
molecule = "CC(=O)NC1(c2cccc(Cl)c2)C2=NCCCN2c2ccccc21.Cl (configuration not stated)"
label = "MEDIUM"

[[record]]
molecule = "COCC(C)CC1(O)C2=NCC(C)(C)CN2c2ccccc21.Cl (configuration not stated)"
label = "MEDIUM"

[[record]]
molecule = "Cl.Cl.NC1(c2ccccc2)C2=NCCCN2c2ccccc21 (configuration not stated)"
label = "MEDIUM"

[[record]]
molecule = "CC1(C)CN=C2N(C1)c1ccccc1C2(NS(C)(=O)=O)c1ccccc1.Cl (configuration not stated)"
label = "LOW"

[[record]]
molecule = "Cl.OC1(c2ccccc2)C2=NCCCN2c2ccccc21 (configuration not stated)"
label = "MEDIUM"

[[record]]
molecule = "CC(=O)NC1(c2ccccc2)C2=NCCCCN2c2ccccc21.Cl (configuration not stated)"
label = "MEDIUM"

[[record]]
molecule = "Cl.OC1(CC2CCCCC2)C2=NCCCN2c2ccccc21 (configuration not stated)"
label = "MEDIUM"

[[record]]
molecule = "CC1(C)CN=C2N(C1)c1ccccc1C2(O)C1CC1.Cl (configuration not stated)"
label = "MEDIUM"

[[record]]
molecule = "Cl.OC1(c2ccccc2)C2=NCC3(CCCCC3)CN2c2ccccc21 (configuration not stated)"
label = "HIGH"

[[record]]
molecule = "CC(=O)NC1(c2ccccc2)C2=NCCCN2c2ccccc21.Cl (configuration not stated)"
label = "LOW"

[[record]]
molecule = "CCC(CC)CC1(O)C2=NCCCN2c2ccccc21.Cl (configuration not stated)"
label = "HIGH"

[[record]]
molecule = "Cl.OC1(c2ccccc2)C2=NCC3(CCCCCC3)CN2c2ccccc21 (configuration not stated)"
label = "MEDIUM"

